Data origin: PubChem BioAssay (NCI)

System: PC-3 prostate
procedure-summary: NCI tumour cell line growth inhibition, 48 h
Each item that follows carries a reported TGI.

Reference set, count: 5
compound	TGI
COc1cc(-c2c3c(cc4c2OCO4)[C@@H](Nc2ccc4c(c2)Cc2cc(N[C@@H]5c6cc7c(cc6C(c6cc(OC)c(O)c(OC)c6)[C@H]6C(=O)OC[C@H]56)OCO7)ccc2-4)[C@H]2COC(=O)[C@@H]2C3)cc(OC)c1O (some centres undefined)	47 µM
COC(=O)C1=C(C(=O)OC)C2(C)CCC(=O)C1O2 (centres undefined)	> 10 µM
C=CCOc1c(Br)cc(Br)cc1Br	> 100 µM
O=c1cc(-c2ccccc2F)[nH]c2cc3c(cc12)OCO3	> 100 µM
CCCNCc1cc(C)cc2c1nc(N1CCNCC1)n2Cc1cc(C)c(F)c(C)c1	7.66 µM

Looking up COC(=O)C(CCSC)NC(=O)CSc1nnc(COc2ccc(Cl)cc2)n1-c1ccccc1 (centres undefined) , I see its TGI listed as 38.4 µM

Looking up CCOC(=O)[C@@H](C)C[C@H](Cc1ccccc1)NC(=O)c1csc([C@@H](C[C@H](C(C)C)N(C)C(=O)[C@@H](NC(=O)[C@H]2CCCCN2C)C(C)(C)C)OC(C)=O)n1 , I see its TGI listed as > 16.7 µM

Looking up CC(C)Cc1c(C#N)c(C#N)c(N)n1Cc1ccccc1 , I see its TGI listed as > 100 µM

====

Test system: MDA-MB-231 breast
procedure-summary: NCI tumour cell line growth inhibition, 48 h
measured-endpoint: TGI

Looking up O=S1(=O)c2ccccc2NC(=S)N1c1ccccc1 , I see its TGI listed as > 100 µM

Looking up COc1ccc2c(c1)[C@@]13CCN4CC5=CCO[C@H]6CC(=O)N2[C@H]1[C@H]6[C@H]5C[C@H]43 , I see its TGI listed as > 100 µM

Looking up COC(=O)c1c(O)ccc2[nH]c(C)c(C#N)c12 , I see its TGI listed as > 100 µM

Looking up FC(F)(F)c1ccc2c(Nc3cccc(C4CC(c5ccccc5)=NN4c4ccc(Cl)cc4)c3)ccnc2c1 (stereo not given) , I see its TGI listed as 15.9 µM

Looking up CCOC(=O)Cc1nn2c(=O)cc(C)nc2s1 , I see its TGI listed as > 100 µM

Looking up C=CC(=O)Nc1cccc(Nc2nc(Nc3ccc(OCCOC)cc3)ncc2F)c1 , I see its TGI listed as 24.7 µM

Looking up CC1=C(C(=O)NNC(=O)CC#N)CC(C(=O)NNC(=O)CC#N)=C(C)N1 , I see its TGI listed as > 100 µM

Looking up O=C(CN=C(CN(c1ccccc1)c1ccccc1)Oc1c(Cl)cc(Cl)cc1Cl)n1cnc2ccccc21 , I see its TGI listed as > 100 µM

Looking up O=C(NCCCNCCCCNCCCNC(=O)C(F)(F)F)C(F)(F)F , I see its TGI listed as > 100 µM

Looking up C=CCOc1c(Br)cc(Br)cc1Br , I see its TGI listed as > 100 µM

====

System: SR leukemia
procedure-summary: NCI tumour cell line growth inhibition, 48 h
measured-endpoint: TGI

Reference set, count: 3
compound	measured-endpoint	experimental-result
Cc1ncc(NC(=O)c2ccc(CN3CCN(C)CC3)c(C(F)(F)F)c2)cc1Nc1nccc(-c2cccnc2)n1	TGI	47.8 µM
CNC(=O)c1cc(Oc2ccc(NC(=O)Nc3ccc(Cl)c(OC(F)(F)F)c3)c(F)c2)ccn1	TGI	7.99 µM
NC(CCSCC(F)F)C(=O)O (stereo unspecified)	TGI	> 100 µM

Looking up C[C@@H]1C(=O)CC2(O)[C@@]13C[C@@H](OC(=O)[C@@H]3O)[C@@H](C)[C@@]21COC1=O (stereo partly specified) , I see its TGI listed as > 100 µM

Looking up Nc1n[nH]c2ccccc12 , I see its TGI listed as > 100 µM

Looking up COc1cc2nc(-c3c(F)cccc3F)n(Cc3c(F)cccc3F)c2cc1Cc1c(F)cccc1F , I see its TGI listed as > 100 µM

Looking up CCOC1NC(=O)c2ccccc21 (stereo unspecified) , I see its TGI listed as > 100 µM
